These measurements were taken from ChEMBL document CHEMBL4665855.

Assay: Protective index, ratio of ID50 for locomotory activity to ED50 for antinociceptive activity in orally dosed ddY mouse
Format: toxicity, organism-based
Conditions: in vivo, po
quantity_measured: selectivity ratio
Respond using a number only.

Using the record for CN1C(=O)c2[nH]c3ccccc3c2CN2CC[C@H]1C2 , report its selectivity ratio. 2.1

Using the record for C/C=C1/CN2CC[C@H]1C(=O)c1[nH]c3ccccc3c1C2 , report its selectivity ratio. 2.2

Using the record for CC12CCN(CC1)Cc1c([nH]c3ccccc13)C2=O , report its selectivity ratio. 2.1

Using the record for CN1C(=O)c2ccc(F)cc2CN2C[C@@H]1C1(CC1)C2 , report its selectivity ratio. 10.3

====

Molecular target: hERG (KCNH2) (Homo sapiens, UniProt Q12809)
Sequence (Q12809 whole entry): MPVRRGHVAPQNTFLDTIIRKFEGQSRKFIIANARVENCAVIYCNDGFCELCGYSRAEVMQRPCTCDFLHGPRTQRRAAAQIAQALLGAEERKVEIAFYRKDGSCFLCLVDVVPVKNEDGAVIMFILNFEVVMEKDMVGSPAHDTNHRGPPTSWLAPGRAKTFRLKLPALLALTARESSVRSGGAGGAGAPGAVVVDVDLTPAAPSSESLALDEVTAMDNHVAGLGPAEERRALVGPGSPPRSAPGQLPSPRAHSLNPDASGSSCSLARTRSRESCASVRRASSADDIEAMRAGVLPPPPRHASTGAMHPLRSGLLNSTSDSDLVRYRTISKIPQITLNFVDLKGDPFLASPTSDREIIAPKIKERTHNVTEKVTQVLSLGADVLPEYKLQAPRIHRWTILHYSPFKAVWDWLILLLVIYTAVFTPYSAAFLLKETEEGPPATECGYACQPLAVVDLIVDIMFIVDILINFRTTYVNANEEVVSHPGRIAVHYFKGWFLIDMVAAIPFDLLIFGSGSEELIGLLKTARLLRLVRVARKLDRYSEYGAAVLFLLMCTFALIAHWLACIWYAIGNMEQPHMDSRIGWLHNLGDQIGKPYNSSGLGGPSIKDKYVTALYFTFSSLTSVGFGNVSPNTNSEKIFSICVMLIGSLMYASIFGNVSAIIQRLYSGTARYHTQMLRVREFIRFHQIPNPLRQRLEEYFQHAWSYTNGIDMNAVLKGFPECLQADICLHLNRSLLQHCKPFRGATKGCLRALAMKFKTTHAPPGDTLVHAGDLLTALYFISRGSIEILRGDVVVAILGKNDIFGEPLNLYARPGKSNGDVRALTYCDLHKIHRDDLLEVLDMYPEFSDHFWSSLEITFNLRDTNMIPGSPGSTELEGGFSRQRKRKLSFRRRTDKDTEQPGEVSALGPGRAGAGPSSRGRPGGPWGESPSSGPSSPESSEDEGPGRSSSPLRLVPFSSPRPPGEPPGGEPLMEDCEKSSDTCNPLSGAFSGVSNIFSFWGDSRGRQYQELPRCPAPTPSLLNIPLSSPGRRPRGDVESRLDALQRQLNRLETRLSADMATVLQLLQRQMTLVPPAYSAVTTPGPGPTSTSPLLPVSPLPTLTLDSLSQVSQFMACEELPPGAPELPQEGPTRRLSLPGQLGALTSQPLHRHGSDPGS
Test: Inhibition of human ERG expressed in HEK293 cells at 10 uM at - 80 mV holding potential by whole cell patch clamp assay relative to control
Format: cell-based
Details: HEK293 cells expressing human ERG
quantity_measured: inhibition at 10 µM (%)
Only the number, expressed in %, is required.

Using the record for CC1c2ccccc2C(=O)N(C)[C@H]2CCN1C2 (stereo partly specified) , report its inhibition at 10 µM. 6

Using the record for CN1C(=O)c2ccccc2CN2CCC[C@H]1C2 , report its inhibition at 10 µM. 5

Using the record for CCN1C(=O)c2ccccc2CN2CC[C@H]1C2 , report its inhibition at 10 µM. 6

Using the record for O=C1c2ccccc2CN2CCCN1CC2 , report its inhibition at 10 µM. -1

Using the record for CN1C(=O)c2ccccc2CN2CC[C@H]1C2 , report its inhibition at 10 µM. 5

Using the record for CN1C(=O)c2ccccc2CN2C[C@@H]1C1(CC1)C2 , report its inhibition at 10 µM. 14

====

Test: AUC in ddY mouse at 10 mg/kg, po by LC-MS/MS method
Assay type: ADME, organism-based
Parameters: dose 10 mg/kg
Conditions: in vivo
quantity_measured: AUC (µM·h)
Only the number, expressed in µM·h, is required.

Using the record for CN1C(=O)c2ccccc2CN2CCC[C@H]1C2 , report its AUC. 1.97

Using the record for CN1C(=O)c2ccccc2CN2C[C@@H]1C1(CC1)C2 , report its AUC. 5.24

Using the record for CN1C(=O)c2ccc(F)cc2CN2C[C@@H]1C1(CC1)C2 , report its AUC. 1.74

Using the record for CN1C(=O)c2ccccc2CN2CC[C@H]1C2 , report its AUC. 7.79

====

Test: Metabolic stability in CD1 mouse liver microsomes assessed as compound remaining measured after 0.5 hrs by LC/MS-MS analysis
Type: ADME, Microsome
Conditions: read-out: Stabilty
quantity_measured: remaining at 0.5 h (%)
Only the number, expressed in %, is required.

Using the record for CN1C(=O)c2c(F)cccc2CN2C[C@@H]1C1(CC1)C2 , report its remaining at 0.5 h. 79

Using the record for CN1C(=O)c2cc(F)ccc2CN2C[C@@H]1C1(CC1)C2 , report its remaining at 0.5 h. 81

Using the record for CN1C(=O)c2ccccc2CN2CC[C@H]1C2 , report its remaining at 0.5 h. 82

Using the record for CN1C(=O)c2ccccc2CN2C[C@@H]1C1(CC1)C2 , report its remaining at 0.5 h. 81

Using the record for CN1C(=O)c2ccccc2CN2CCC[C@H]1C2 , report its remaining at 0.5 h. 62

Using the record for CC1c2ccccc2C(=O)N(C)[C@H]2CCN1C2 (stereo not given in full) , report its remaining at 0.5 h. 81

Using the record for CN1C(=O)c2ccc(F)cc2CN2C[C@@H]1C1(CC1)C2 , report its remaining at 0.5 h. 83

Using the record for O=C1c2ccccc2CN2CCCN1CC2 , report its remaining at 0.5 h. 78

Using the record for CCN1C(=O)c2ccccc2CN2CC[C@H]1C2 , report its remaining at 0.5 h. 80

Using the record for CN1C(=O)c2cccc(F)c2CN2C[C@@H]1C1(CC1)C2 , report its remaining at 0.5 h. 79
